Target: 5HT-Transporter (Homo sapiens)
Construct: Human platelet membranes (Oceanix Biosciences Corporation, Hanover, Md., USA) were thawed; tissue Oceanix Biosciences Corporation; host or cells: human platelet membranes
Sequence (P31645 whole entry): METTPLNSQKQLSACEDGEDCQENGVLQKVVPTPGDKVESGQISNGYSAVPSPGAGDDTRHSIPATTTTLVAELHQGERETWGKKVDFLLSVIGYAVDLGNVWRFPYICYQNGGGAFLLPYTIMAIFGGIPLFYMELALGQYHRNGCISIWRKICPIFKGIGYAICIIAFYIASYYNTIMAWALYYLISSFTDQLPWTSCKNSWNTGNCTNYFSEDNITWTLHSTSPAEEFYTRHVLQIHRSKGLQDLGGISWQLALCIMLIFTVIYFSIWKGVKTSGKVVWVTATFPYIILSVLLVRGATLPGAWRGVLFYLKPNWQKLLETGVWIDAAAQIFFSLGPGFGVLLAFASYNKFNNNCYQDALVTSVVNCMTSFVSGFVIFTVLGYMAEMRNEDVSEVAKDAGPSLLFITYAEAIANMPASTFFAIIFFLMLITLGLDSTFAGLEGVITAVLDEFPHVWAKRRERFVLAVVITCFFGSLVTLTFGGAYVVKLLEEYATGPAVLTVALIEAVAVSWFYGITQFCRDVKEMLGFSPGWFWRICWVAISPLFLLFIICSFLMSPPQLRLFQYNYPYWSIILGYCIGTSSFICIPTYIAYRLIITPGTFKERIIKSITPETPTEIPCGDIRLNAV
Test Method Notes: Binding experiment for the 5HT-transporter ([3H]paroxetine, human platelet membranes)
Protocol Conditions: [3H]paroxetine 0.5 nM, read-out: h-5HTT pIC50 (converted)

{"Molecule": "NCc1ccc(Cn2ccnc(NC3CCN(Cc4ccc(OCc5ccccc5)cc4)CC3)c2=O)cc1 [Compound 11-1]", "Measurement Qualifier": "=", "IC50 [nM]": 2000}
{"Molecule": "CC(C)(C)OC(=O)NCCCn1ccnc(NC2CCN(CCCc3ccccc3)CC2)c1=O [Compound 7-2]", "Measurement Qualifier": "=", "IC50 [nM]": 3160}
{"Molecule": "CN(CCc1ccccc1)C1CCN(c2nccn(CCCN3C(=O)c4ccccc4C3=O)c2=O)CC1 [Compound 8-1]", "Measurement Qualifier": "=", "IC50 [nM]": 3160}
{"Molecule": "COc1ccc(-c2nnc(Cn3ccnc(N4CCN(CCc5ccccc5)CC4)c3=O)o2)cc1 [Compound 10-12]", "Measurement Qualifier": ">", "IC50 [nM]": 10000}
{"Molecule": "CC(C)(C)OC(=O)NCCCn1ccnc(NC2CCN(CC(c3ccccc3)c3ccccc3)CC2)c1=O [Compound 9-3]", "Measurement Qualifier": ">", "IC50 [nM]": 10000}
{"Molecule": "NCc1ccc(Cn2ccnc(NC3CCN(CCc4ccccc4)CC3)c2=O)cc1 [Compound 6-2]", "Measurement Qualifier": "=", "IC50 [nM]": 3980}
{"Molecule": "CC(C)(C)OC(=O)NCCCn1ccnc(N2CCN(Cc3ccc(-c4ccccc4)cc3)CC2)c1=O [Compound 2-1]", "Measurement Qualifier": "=", "IC50 [nM]": 1580}
{"Molecule": "O=c1c(NC2CCN(Cc3ccc(-c4ccccc4)cc3)CC2)nccn1Cc1ccc2ccccc2n1 [Compound 1-11]", "Measurement Qualifier": "=", "IC50 [nM]": 501}
{"Molecule": "O=c1c(NC2CCN(Cc3ccc(OCc4ccccc4)cc3)CC2)nccn1Cc1ccc(Br)cc1 [Compound 11-7]", "Measurement Qualifier": "=", "IC50 [nM]": 1580}
{"Molecule": "O=c1c(NC2CCN(Cc3ccc(-c4ccccc4)cc3)CC2)nccn1CC1CCCCO1 (centres unmarked) [Compound 1-9]", "Measurement Qualifier": "=", "IC50 [nM]": 316}
{"Molecule": "CC(C)(C)OC(=O)NCc1ccc(Cn2ccnc(NC3CCN(CCCc4ccccc4)CC3)c2=O)cc1 [Compound 7-3]", "Measurement Qualifier": "=", "IC50 [nM]": 1580}
{"Molecule": "O=c1c(NC2CCN(CCCc3ccccc3)CC2)nccn1CCN1CCCCC1 [Compound 7-4]", "Measurement Qualifier": ">", "IC50 [nM]": 10000}
{"Molecule": "NCc1ccc(Cn2ccnc(NC3CCN(Cc4ccccc4)CC3)c2=O)cc1 [Compound 5-2]", "Measurement Qualifier": ">", "IC50 [nM]": 10000}
{"Molecule": "O=C1c2ccccc2C(=O)N1CCCn1ccnc(NC2CCN(Cc3ccc(OCc4ccccc4)cc3)CC2)c1=O [Compound 11-5]", "Measurement Qualifier": "=", "IC50 [nM]": 3160}
{"Molecule": "O=c1c(NC2CCN(Cc3ccc(-c4ccccc4)cc3)CC2)nccn1Cc1ccc(Br)cc1 [Compound 1-8]", "Measurement Qualifier": "=", "IC50 [nM]": 631}
{"Molecule": "O=C1c2ccccc2C(=O)N1CCCn1ccnc(NC2CCN(CCc3ccccc3)CC2)c1=O [Compound 6-6]", "Measurement Qualifier": "=", "IC50 [nM]": 1580}
{"Molecule": "NCc1ccc(Cn2ccnc(NC3CCN(CCc4ccccc4)CC3)c2=O)cc1 [Compound 6-3]", "Measurement Qualifier": ">", "IC50 [nM]": 10000}

* * *

Target: human adrenergic-α2A receptor (Homo sapiens, UniProt P08913)
Construct: expressed in transfected cells; host or cells: CHO cells, stably transfected; membranes
Test Method Notes: Radioligand binding experiment for hα2A receptor ([3H]raulwolscine, CHO cell membranes)
Protocol Conditions: [3H]raulwolscine 1 nM, membranes of CHO cells transfected with human α2A receptor; read-out: h-α2A pIC50 (converted)
IC50 reference

{"Compound": "CN(C)CCCn1ccnc(NC2CCN(Cc3ccc(OCc4ccccc4)cc3)CC2)c1=O [Compound 11-2]", "IC50 [nM]": 794}
{"Compound": "NCc1ccc(Cn2ccnc(NC3CCN(CC(c4ccccc4)c4ccccc4)CC3)c2=O)cc1 [Compound 9-2]", "IC50 [nM]": 794}
{"Compound": "O=c1c(NC2CCN(CCc3ccccc3)CC2)nccn1Cc1ccc(Br)cc1 [Compound 6-9]", "IC50 [nM]": 1260}
{"Compound": "O=c1c(NC2CCN(Cc3ccc(-c4ccccc4)cc3)CC2)nccn1Cc1ccccc1Br [Compound 1-6]", "IC50 [nM]": 794}
{"Compound": "O=C1c2ccccc2C(=O)N1CCCn1ccnc(N2CCN(Cc3cccc(-c4ccccc4)c3)CC2)c1=O [Compound 3-9]", "IC50 [nM]": 1580}
{"Compound": "NCc1ccc(Cn2ccnc(NC3CCN(CCc4ccccc4)CC3)c2=O)cc1 [Compound 6-3]", "IC50 [nM]": 1260}
{"Compound": "CC(C)(C)OC(=O)NCc1ccc(Cn2ccnc(NC3CCN(CC(c4ccccc4)c4ccccc4)CC3)c2=O)cc1 [Compound 9-4]", "IC50 [nM]": 3160}
{"Compound": "O=c1c(N2CCN(Cc3ccccc3)CC2)nccn1Cc1ccc2ccccc2c1 [Compound 10-9]", "IC50 [nM]": 126}
{"Compound": "NCc1ccc(Cn2ccnc(N3CCN(CCc4ccccc4)CC3)c2=O)cc1 [Compound 10-1]", "IC50 [nM]": 794}
{"Compound": "O=c1c(NC2CCN(Cc3ccc(-c4ccccc4)cc3)CC2)nccn1Cc1ccc(Br)cc1 [Compound 1-8]", "IC50 [nM]": 1000}
{"Compound": "O=c1[nH]ccnc1N1CCN(Cc2cccc(-c3ccccc3)c2)CC1 [Compound 3-3]", "IC50 [nM]": 316}
{"Compound": "O=c1c(NC2CCN(Cc3ccc(-c4ccccc4)cc3)CC2)nccn1Cc1ccc2ccccc2n1 [Compound 1-11]", "IC50 [nM]": 631}
{"Compound": "CC(C)(C)OC(=O)NCCCn1ccnc(NC2CCN(Cc3ccc(OCc4ccccc4)cc3)CC2)c1=O [Compound 11-3]", "IC50 [nM]": 794}
{"Compound": "CC(C)(C)OC(=O)NCCCn1ccnc(NC2CCN(CCc3ccccc3)CC2)c1=O [Compound 6-4]", "IC50 [nM]": 3160}
{"Compound": "O=C1c2ccccc2C(=O)N1CCCn1ccnc(NC2CCN(Cc3ccc(-c4ccccc4)cc3)CC2)c1=O [Compound 1-4]", "IC50 [nM]": 631}
{"Compound": "O=C(Cn1ccnc(NC2CCN(CCCc3ccccc3)CC2)c1=O)c1ccccc1 [Compound 7-14]", "IC50 [nM]": 501}

* * *

IC50 reference
Target: human adrenergic-α2C receptor (Homo sapiens, UniProt P18825)
Construct: expressed in transfected cells; host or cells: CHO cells, stably transfected; membranes
Sequence (P18825 whole entry): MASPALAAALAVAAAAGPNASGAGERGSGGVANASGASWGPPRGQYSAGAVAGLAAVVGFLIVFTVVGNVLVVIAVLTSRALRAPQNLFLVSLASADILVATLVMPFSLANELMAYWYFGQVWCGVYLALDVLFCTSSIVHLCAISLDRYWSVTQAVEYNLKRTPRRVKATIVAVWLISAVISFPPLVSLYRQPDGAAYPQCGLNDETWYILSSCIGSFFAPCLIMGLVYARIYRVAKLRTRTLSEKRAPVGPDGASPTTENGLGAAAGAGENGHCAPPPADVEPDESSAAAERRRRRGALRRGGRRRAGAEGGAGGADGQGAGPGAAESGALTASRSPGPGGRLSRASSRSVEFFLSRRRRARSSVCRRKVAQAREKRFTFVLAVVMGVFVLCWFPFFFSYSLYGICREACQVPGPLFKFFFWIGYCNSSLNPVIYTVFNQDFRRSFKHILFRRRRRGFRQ
Test Method Notes: Radioligand binding experiment for α2C-adrenoceptor ([3H]raulwolscine, CHO cell membranes)
Protocol Conditions: [3H]raulwolscine 1 nM, membranes of CHO cells transfected with human α2C receptor; read-out: h-α2C pIC50 (converted)

{"Molecular String": "O=c1c(NC2CCN(CC(c3ccccc3)c3ccccc3)CC2)nccn1CCN1CCCCC1", "IC50, µM": 0.794}
{"Molecular String": "O=C1c2ccccc2C(=O)N1CCCn1ccnc(N2CCN(Cc3ccc(-c4ccccc4)cc3)CC2)c1=O", "IC50, µM": 0.316}
{"Molecular String": "O=c1c(NC2CCN(Cc3ccc(-c4ccccc4)cc3)CC2)nccn1Cc1cccc(Br)c1", "IC50, µM": 0.398}
{"Molecular String": "O=C1c2ccccc2C(=O)N1CCCn1ccnc(NC2CCN(CCc3ccccc3)CC2)c1=O", "IC50, µM": 0.158}
{"Molecular String": "O=c1c(NC2CCN(Cc3ccc(-c4ccccc4)cc3)CC2)nccn1Cc1ccc(Br)cc1", "IC50, µM": 0.794}
{"Molecular String": "O=c1c(N2CCC(c3ccccc3)CC2)nccn1Cc1ccc2ccccc2c1", "IC50, µM": 0.501}
{"Molecular String": "CSCCn1ccnc(NC2CCN(CCCc3ccccc3)CC2)c1=O", "IC50, µM": 0.398}
{"Molecular String": "NCc1ccc(Cn2ccnc(N3CCN(CCc4ccccc4)CC3)c2=O)cc1", "IC50, µM": 0.631}

* * *

Target: human adrenergic-α2A receptor (Homo sapiens, UniProt P08913)
Construct: expressed in transfected cells; host or cells: CHO cells, stably transfected; membranes
Sequence (P08913 1-465): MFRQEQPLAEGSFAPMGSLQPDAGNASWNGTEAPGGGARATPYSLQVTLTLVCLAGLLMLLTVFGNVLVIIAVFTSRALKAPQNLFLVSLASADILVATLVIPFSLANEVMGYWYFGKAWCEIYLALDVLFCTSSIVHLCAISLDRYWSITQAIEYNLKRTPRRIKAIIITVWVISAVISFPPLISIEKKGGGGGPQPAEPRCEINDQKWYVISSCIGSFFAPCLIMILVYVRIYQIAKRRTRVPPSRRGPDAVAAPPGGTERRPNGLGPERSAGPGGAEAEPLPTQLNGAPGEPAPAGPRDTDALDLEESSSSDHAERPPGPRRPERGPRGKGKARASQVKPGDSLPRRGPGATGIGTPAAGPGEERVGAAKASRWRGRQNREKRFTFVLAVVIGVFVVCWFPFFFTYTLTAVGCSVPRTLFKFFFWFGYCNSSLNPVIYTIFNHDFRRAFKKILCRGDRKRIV
Test Method Notes: Radioligand binding experiment for hα2A receptor ([3H]raulwolscine, CHO cell membranes)
Protocol Conditions: [3H]raulwolscine 1 nM, membranes of CHO cells transfected with human α2A receptor; read-out: h-α2A pIC50 (converted)

{"Molecular String": "O=c1c(NC2CCN(Cc3ccc(-c4ccccc4)cc3)CC2)nccn1CCN1CCCCC1", "Target": "human adrenergic-α2A receptor (Homo sapiens, UniProt P08913)", "IC50, nM": 501}
{"Molecular String": "O=c1c(NC2CCN(CCc3ccccc3)CC2)nccn1Cc1ccccc1Br", "Target": "human adrenergic-α2A receptor (Homo sapiens, UniProt P08913)", "IC50, nM": 794}
{"Molecular String": "O=c1c(N2CCN(Cc3cccc(-c4ccccc4)c3)CC2)nccn1Cc1ccc2ccccc2c1", "Target": "human adrenergic-α2A receptor (Homo sapiens, UniProt P08913)", "IC50, nM": 200}
